Each entry below carries its reported Kd.
# SYSTEM_UNDER_TEST: T1, Human VEGF 165 (human, UniProt P15692-4 27-191)
# T1 construct: Loaded on the BLI probe as the ligand; also called BLI ligand Human VEGF 165 (Avi tag, R&D Systems AVI-293-050); not shown: Avi tag
# ASSAY_COMMENT: BLI, VEGF 165 on probe; sample aged 14 days at 37 °C

{"BINDER": "Conjugate 18 (anti-VEGF VHH SEQ ID NO: 91 on hyaluronic acid, intermediate 1-7) (VHH, peptide bound through the organic linker MP2H to hyaluronic acid (830 kDa); site of attachment not stated, Multivalent peptide-hyaluronic acid conjugate (MVP); peptide valency 88; Method 1 intermediate; also called BI VHH anti-VEGF MVP) VHH: DVQLVESGGGLVQPGGSLRLSCAASGRTFSSYSMGWFRQAPGKEREFVVAISKGGYKYDAVSLEGRFTISRDNAKNTVYLQINSLRPEDTAVYYCASSRAYGSSRLRLADTYEYWGQGTLVTVSS", "Kd (nM)": 3.67}
{"BINDER": "Conjugate 17 (anti-VEGF VHH SEQ ID NO: 91 on hyaluronic acid, intermediate 1-7) (VHH, peptide bound through the organic linker MP2H to hyaluronic acid (830 kDa); site of attachment not stated, Multivalent peptide-hyaluronic acid conjugate (MVP); peptide valency 90; Method 1 intermediate; also called BI VHH anti-VEGF MVP) VHH: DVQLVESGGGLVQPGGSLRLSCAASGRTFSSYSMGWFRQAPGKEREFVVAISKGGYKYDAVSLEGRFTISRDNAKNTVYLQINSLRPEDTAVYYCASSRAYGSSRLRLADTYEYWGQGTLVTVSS", "Kd (nM)": 0.911}
{"BINDER": "Conjugate 21 (anti-VEGF VHH SEQ ID NO: 91 with aH linker SEQ ID NO: 21 on hyaluronic acid, intermediate 1-9) (VHH, C-terminal Cys of the peptide linker bound by its thiol to the maleimide of the organic linker MP2H on hyaluronic acid (830 kDa), Multivalent peptide-hyaluronic acid conjugate (MVP); peptide valency 51; Method 1 intermediate; also called BI VHH anti-VEGF MVP) VHH: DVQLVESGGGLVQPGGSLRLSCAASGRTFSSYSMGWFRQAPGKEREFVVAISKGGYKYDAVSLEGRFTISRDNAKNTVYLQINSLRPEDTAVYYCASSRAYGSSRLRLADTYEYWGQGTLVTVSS", "Kd (nM)": 1.14}
{"BINDER": "Conjugate 20 (anti-VEGF VHH SEQ ID NO: 91 on hyaluronic acid, intermediate 2-8) (VHH, peptide bound through the organic linker MP2H to hyaluronic acid (830 kDa); site of attachment not stated, Multivalent peptide-hyaluronic acid conjugate (MVP); peptide valency 91; Method 2 intermediate; also called BI VHH anti-VEGF MVP) VHH: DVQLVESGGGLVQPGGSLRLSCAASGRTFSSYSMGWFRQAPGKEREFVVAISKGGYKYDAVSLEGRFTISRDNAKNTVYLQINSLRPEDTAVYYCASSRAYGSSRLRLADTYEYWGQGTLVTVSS", "Kd (nM)": 1.44}
{"BINDER": "Conjugate 22 (anti-VEGF VHH SEQ ID NO: 91 with aH linker SEQ ID NO: 21 on hyaluronic acid, intermediate 1-10) (VHH, C-terminal Cys of the peptide linker bound by its thiol to the maleimide of the organic linker MP2H on hyaluronic acid (830 kDa), Multivalent peptide-hyaluronic acid conjugate (MVP); peptide valency 18; Method 1 intermediate; also called BI VHH anti-VEGF MVP) VHH: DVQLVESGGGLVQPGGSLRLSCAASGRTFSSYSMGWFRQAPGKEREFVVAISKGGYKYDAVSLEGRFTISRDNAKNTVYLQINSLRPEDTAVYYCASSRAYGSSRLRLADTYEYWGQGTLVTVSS", "Kd (nM)": 0.142}
{"BINDER": "Conjugate 23 (anti-VEGF VHH SEQ ID NO: 91 with aH linker SEQ ID NO: 21 on hyaluronic acid, intermediate 1-11) (VHH, C-terminal Cys of the peptide linker bound by its thiol to the maleimide of the organic linker MP2H on hyaluronic acid (830 kDa), Multivalent peptide-hyaluronic acid conjugate (MVP); peptide valency 33; Method 1 intermediate; also called BI VHH anti-VEGF MVP) VHH: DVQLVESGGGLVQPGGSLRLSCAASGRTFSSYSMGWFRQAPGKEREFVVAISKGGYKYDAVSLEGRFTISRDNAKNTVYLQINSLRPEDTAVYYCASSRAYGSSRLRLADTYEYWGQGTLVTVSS", "Kd (nM)": 1.95}
